# System Under Test: HLA-A*02:01
# Measurement Protocol: IEDB peptide-MHC binding, cellular MHC/competitive/fluorescence; bounds were set here for any values at or beyond the usual limits of such assays
# Assay Conditions: source organism: Vaccinia virus WR
Readout Kind: pIC50
// pIC50 is dimensionless: -log10 of concentration (M)

Observe how each entry below is paired with its result.
# Macromolecule Sequence, Measured Result
measured = [
    ("SAVFKDSFL", 5.22),
    ("IIRQRNDEI", 4.28),
    ("NLCKYLRGHT", 4.42),
    ("FTHTTAFFNT", 5.00),
    ("HIHKILTREM", 4.79),
    ("DIVSDSKKIM", 4.19),
    ("EAFETQSGAL", 4.85),
    ("PAHLINKLL", 4.95),
    ("DLENLYAVT", 5.18),
    ("PLHIVCSKT", 5.10),
]

The sequence NAECQPLQL showed pIC50 equal to 4.84

pIC50 reported for this sequence TVPTMNNAKL : 4.38

Value of pIC50 reported for the sequence KLTKDRKML is 4.25

Sure, the documented pIC50 for SATVYGDKI is 4.89

Note to self: pIC50 recorded for MQHPREENSI was 4.56

Looking up TTENAAYQV , I found its pIC50 recorded as 4.53

---

# System Under Test: HLA-A*02:03
# Measurement Protocol: IEDB peptide-MHC binding, cellular MHC/competitive/fluorescence; bounds were set here for any values at or beyond the usual limits of such assays
# Assay Conditions: source organism: Influenza A virus
IC50 strictly less than 20 µM = rule met. Otherwise rule not met.

Some solved entries appear below for comparison.
# Macromolecule Sequence, Qualitative Label
rows = [
    ("FNPMIVELA", "rule met"),
    ("LLLIVQALR", "rule met"),
    ("QAIMDKNIIL", "rule met"),
]

Q. Strictly below 20 µM in IC50? ALSYSTGA
A. rule not met

Q. Hello, is IC50 of the following sequence strictly smaller than 20 µM? NTTIEKEI
A. rule not met

---

# System Under Test: HLA-B*54:01
# Measurement Protocol: IEDB peptide-MHC binding, purified MHC/competitive/radioactivity; bounds were set here for any values at or beyond the usual limits of such assays
# Assay Conditions: source organism: Mammarenavirus machupoense
Readout Kind: IC50 (µM)
Your answer should be a plain number; it is taken to be in µM.

# value of IC50, HLA-B*54:01, item MLNNSFYYM = 4.96

---

Reported values of pIC50 for individual entries
# System Under Test: HLA-A*11:01
# Measurement Protocol: IEDB peptide-MHC binding, cellular MHC/competitive/fluorescence; bounds were set here for any values at or beyond the usual limits of such assays
# Assay Conditions: source organism: Hepatitis B virus
pIC50: −log10 of the molar value.

Study these solved cases before continuing.
# Macromolecule Sequence, pIC50
data = [
    ("YMDDVVLGA", "≤ 4.15"),
    ("NLSWLSLDV", "≤ 4.15"),
    ("GLSRYVARV", "≤ 4.15"),
]

Notebook: FLAPLPIHTA , pIC50 read as 4.36

Lab note: measured pIC50 of FLGPLLVLQA was 4.21

# pIC50 (sequence: ILRGTSFVYV ) is ≤ 4.15

Lookup result for SLYSILSPFL ; measured pIC50: ≤ 4.15

Recorded pIC50 (sequence LLPIFFCLWV ): ≤ 4.15

Measured pIC50 of LLDYQGMLPV : 4.55

Lab note: PLLPIFFCL gave pIC50 of ≤ 4.15

Form field pIC50, entry YLVSFGVWI : ≤ 4.15

Value source: the Immune Epitope Database (IEDB)
